protocol.description: Tmax in C57BL/6 mouse plasma at 1 mg/kg, iv by LC-MS/MS analysis
Assay type: ADME, organism-based
experimental.endpoint: Tmax (min)
Answers are plain numbers, in min.

Q) Read the entry O=C(/C=C/c1ccc(-c2cccc(C(F)(F)F)c2)cc1)Nc1ccccc1C(=O)O and write its reported Tmax.
A) 4.8

* * *

protocol.description: Clearance in C57BL/6 mouse plasma at 0.3 mg/kg, iv by LC-MS/MS analysis
Type: ADME, organism-based
experimental.endpoint: clearance (mL/min/kg)
Give bare numbers, in mL/min/kg.

Q) Read the entry O=C(/C=C/c1ccc(-c2cccc(C(F)(F)F)c2)cc1)Nc1ccccc1C(=O)O and write its reported clearance.
A) 0.917

* * *

measured.on: Transient receptor potential cation channel subfamily M member 2 (Homo sapiens, UniProt O94759)
Sequence (O94759 whole entry): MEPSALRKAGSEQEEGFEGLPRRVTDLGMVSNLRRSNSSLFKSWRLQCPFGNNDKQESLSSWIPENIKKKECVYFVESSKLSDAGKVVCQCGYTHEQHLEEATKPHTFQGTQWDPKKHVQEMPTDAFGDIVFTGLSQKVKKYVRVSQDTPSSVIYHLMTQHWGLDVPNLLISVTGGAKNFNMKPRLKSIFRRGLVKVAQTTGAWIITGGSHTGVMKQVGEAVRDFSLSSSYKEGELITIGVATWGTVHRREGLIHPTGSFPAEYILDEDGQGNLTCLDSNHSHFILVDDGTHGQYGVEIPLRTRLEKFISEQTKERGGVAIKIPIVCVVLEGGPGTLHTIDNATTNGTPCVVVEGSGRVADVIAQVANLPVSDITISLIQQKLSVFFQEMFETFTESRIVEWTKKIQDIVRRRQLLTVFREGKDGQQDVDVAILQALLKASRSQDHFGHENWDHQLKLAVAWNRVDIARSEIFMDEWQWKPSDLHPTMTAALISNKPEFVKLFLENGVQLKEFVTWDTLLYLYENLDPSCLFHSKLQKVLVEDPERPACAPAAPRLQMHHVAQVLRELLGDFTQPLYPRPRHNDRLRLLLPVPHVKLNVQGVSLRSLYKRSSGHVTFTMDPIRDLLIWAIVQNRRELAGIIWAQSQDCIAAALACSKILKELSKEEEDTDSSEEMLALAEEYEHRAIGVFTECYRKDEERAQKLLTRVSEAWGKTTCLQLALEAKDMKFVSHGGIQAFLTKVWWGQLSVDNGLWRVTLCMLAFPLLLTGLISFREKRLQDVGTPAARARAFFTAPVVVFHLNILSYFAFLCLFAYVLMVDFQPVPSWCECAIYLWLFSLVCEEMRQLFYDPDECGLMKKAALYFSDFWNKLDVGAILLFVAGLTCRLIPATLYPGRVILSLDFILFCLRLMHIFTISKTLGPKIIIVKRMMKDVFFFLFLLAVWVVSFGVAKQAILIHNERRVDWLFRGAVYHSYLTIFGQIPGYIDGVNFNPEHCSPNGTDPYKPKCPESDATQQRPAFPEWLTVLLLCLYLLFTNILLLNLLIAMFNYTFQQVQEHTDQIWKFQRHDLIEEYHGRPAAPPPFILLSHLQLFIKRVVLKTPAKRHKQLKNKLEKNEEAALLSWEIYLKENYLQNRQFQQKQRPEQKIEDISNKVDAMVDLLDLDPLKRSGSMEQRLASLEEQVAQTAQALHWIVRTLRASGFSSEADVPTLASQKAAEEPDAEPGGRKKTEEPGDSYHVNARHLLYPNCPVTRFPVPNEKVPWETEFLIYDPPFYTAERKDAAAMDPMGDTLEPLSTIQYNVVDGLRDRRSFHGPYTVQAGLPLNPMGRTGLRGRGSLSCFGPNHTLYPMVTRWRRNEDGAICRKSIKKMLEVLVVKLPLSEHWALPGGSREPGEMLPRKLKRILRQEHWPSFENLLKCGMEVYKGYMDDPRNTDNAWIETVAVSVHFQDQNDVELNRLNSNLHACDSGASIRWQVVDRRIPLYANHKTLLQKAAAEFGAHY
protocol.description: Inhibition of human TRPM2 expressed in HEK293T cells assessed as suppression of H2O2-induced calcium flux at 1 uM measured after 30 mins by Fluo-3/AM assay
Type: cell-based
experimental.endpoint: inhibition

Examples with answers:
CCCCCc1ccc(/C=C/C(=O)Nc2ccc(C(=O)O)cc2)cc1 | < 45%
CCCCCc1ccc(/C=C/C(=O)N2CCC(=O)c3ccccc32)cc1 | < 45%
CCCCCc1ccc(/C=C/C(=O)c2ccccc2C(=O)O)cc1 | > 45%
CCCCCc1ccc(NC(=O)c2ccccc2C(=O)O)cc1 | > 45%
CCCCCc1ccc(C(=O)Nc2ccccc2C(=O)O)cc1 | > 45%

Go through the list and state inhibition for each entry.
1. Cc1ccccc1-c1ccc(/C=C/C(=O)Nc2ccccc2C(=O)O)cc1
2. O=C(/C=C/c1ccc(Cl)cc1)Nc1ccccc1C(=O)O
3. CCCCCc1ccc(/C=C/C(=O)Nc2c(C)cccc2C(=O)O)cc1
4. O=C(/C=C/c1ccc(-c2cccc([N+](=O)[O-])c2)cc1)Nc1ccccc1C(=O)O
5. O=C(/C=C/c1ccc(-c2ccccc2)cc1)Nc1ccccc1C(=O)O
6. O=C(/C=C/c1ccc(N2CCCCC2)cc1)Nc1ccccc1C(=O)O
7. Cc1ccc(-c2ccc(/C=C/C(=O)Nc3ccccc3C(=O)O)cc2)cc1

A)
1. > 45%
2. < 45%
3. < 45%
4. > 45%
5. > 45%
6. < 45%
7. > 45%

* * *

measured.on: Transient receptor potential cation channel subfamily M member 2 (Homo sapiens, UniProt O94759)
protocol.description: Inhibition of human TRPM2 expressed in HEK293T cells assessed as suppression of H2O2-induced calcium flux at 1 uM measured after 30 mins by Fluo-3/AM assay
Format: cell-based
experimental.endpoint: inhibition

Examples with answers:
CCCCCc1ccc(/C=C/C(=O)Nc2cccc(C(=O)O)c2)cc1 | > 45%
CC(C)NC(=O)c1ccc(/C=C/C(=O)Nc2ccccc2C(=O)O)cc1 | < 45%
CCc1ccc(/C=C/C(=O)Nc2ccccc2C(=O)O)cc1 | < 45%
CCCCCc1ccc(/C=C/C(=O)Nc2c(C)cc(Cl)cc2C(=O)O)cc1 | < 45%
CCCCCc1ccc(/C=C/C(=O)Nc2cc(F)c(F)cc2C(=O)O)cc1 | > 45%
COc1ccccc1-c1ccc(/C=C/C(=O)Nc2ccccc2C(=O)O)cc1 | > 45%

Go through the list and state inhibition for each entry.
1. O=C(/C=C/c1ccc(-c2cccnc2)cc1)Nc1ccccc1C(=O)O
2. Cc1cc(-c2ccccc2)ccc1/C=C/C(=O)Nc1ccccc1C(=O)O

A)
["< 45%", "> 45%"]

Go through the list and state inhibition for each entry.
1. O=C(/C=C/c1ccc(-c2ccccc2)cc1)Nc1ccc(F)cc1C(=O)O
2. CC(C)(C)c1ccc(-c2ccc(/C=C/C(=O)Nc3ccccc3C(=O)O)cc2)cc1
3. CCCCCc1ccc(/C=C/C(=O)Nc2ccc(C)cc2C(=O)O)cc1
4. O=C(/C=C/c1ccc(-c2ccc(C(F)(F)F)cc2)cc1)Nc1ccccc1C(=O)O
5. O=C(/C=C/c1ccc(-c2ccccc2F)cc1)Nc1ccccc1C(=O)O
6. Cc1cccc(-c2ccc(/C=C/C(=O)Nc3ccccc3C(=O)O)cc2)c1
7. CCCc1ccc(/C=C/C(=O)Nc2ccccc2C(=O)O)cc1

A)
> 45%
> 45%
> 45%
> 45%
> 45%
> 45%
< 45%
